Molecular target: Human TLR7 (Homo sapiens)
Construct: stably and individually express human TLR4, TLR7 or TLR9 full-length ORF cDNAs; host or cells: HEK-293 (ATCC) with ELAM-1 NF-kappaB luciferase reporter
Sequence (Q9NYK1 27-1049): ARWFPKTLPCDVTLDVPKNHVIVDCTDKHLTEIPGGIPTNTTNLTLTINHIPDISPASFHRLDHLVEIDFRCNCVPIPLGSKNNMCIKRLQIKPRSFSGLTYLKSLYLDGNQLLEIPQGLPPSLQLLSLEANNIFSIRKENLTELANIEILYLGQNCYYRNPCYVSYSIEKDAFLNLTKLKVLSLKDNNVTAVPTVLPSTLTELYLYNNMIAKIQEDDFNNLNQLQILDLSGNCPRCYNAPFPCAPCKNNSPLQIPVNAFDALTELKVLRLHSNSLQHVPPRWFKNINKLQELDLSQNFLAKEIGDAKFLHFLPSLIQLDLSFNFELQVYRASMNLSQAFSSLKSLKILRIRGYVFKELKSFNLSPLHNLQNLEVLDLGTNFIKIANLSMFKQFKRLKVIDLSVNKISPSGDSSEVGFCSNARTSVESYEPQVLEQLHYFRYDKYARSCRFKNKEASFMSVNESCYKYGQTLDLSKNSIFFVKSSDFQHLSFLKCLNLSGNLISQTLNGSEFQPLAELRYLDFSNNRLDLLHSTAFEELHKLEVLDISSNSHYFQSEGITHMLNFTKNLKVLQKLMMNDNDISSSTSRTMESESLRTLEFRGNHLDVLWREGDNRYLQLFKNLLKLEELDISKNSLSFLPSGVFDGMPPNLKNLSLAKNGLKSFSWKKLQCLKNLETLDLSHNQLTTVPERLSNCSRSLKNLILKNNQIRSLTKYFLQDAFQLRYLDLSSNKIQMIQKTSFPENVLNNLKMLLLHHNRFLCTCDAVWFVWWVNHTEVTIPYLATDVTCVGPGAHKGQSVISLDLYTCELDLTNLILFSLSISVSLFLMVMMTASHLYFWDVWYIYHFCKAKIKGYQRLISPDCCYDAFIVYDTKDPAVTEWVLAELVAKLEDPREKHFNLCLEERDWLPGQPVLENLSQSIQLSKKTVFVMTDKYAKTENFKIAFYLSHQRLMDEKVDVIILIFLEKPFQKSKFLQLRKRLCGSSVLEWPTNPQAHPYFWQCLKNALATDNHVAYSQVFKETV
Assay: HEK-293 human TLR7 NF-kappaB luciferase reporter assay (CL097)
Format: cell-based
Conditions: IC50 average, HEK-hTLR7; CL097 3 ug/ml; average of three tests
Procedure: Effects on mouse TLR7 were also compared. Cells were stimulated overnight with TLR7/8 agonist CL097 at pre-determined ED70-80: 3 ug/ml for HEK-hTLR7, 1.5 ug/ml for HEK-mTLR7 and 12 ug/ml for HEK-hTLR8, before reading luminescence intensity. Three tests were performed and IC50 value was determined using Graphpad Prism 6 nonlinear regression curve fit. […]
experimental_endpoint: pIC50
Numbers only, as −log10 of the molar value.

# pIC50 of C[C@@H]1CN(c2ccc(C#N)c3ncccc23)C[C@H](C(=O)N[C@H]2CNC[C@H]2F)O1.Cl [ER-899742, hydrochloride] = 7.62

###

Biological target: mouse TLR7 (Mus musculus, UniProt P58681)
Sequence (P58681 27-1050): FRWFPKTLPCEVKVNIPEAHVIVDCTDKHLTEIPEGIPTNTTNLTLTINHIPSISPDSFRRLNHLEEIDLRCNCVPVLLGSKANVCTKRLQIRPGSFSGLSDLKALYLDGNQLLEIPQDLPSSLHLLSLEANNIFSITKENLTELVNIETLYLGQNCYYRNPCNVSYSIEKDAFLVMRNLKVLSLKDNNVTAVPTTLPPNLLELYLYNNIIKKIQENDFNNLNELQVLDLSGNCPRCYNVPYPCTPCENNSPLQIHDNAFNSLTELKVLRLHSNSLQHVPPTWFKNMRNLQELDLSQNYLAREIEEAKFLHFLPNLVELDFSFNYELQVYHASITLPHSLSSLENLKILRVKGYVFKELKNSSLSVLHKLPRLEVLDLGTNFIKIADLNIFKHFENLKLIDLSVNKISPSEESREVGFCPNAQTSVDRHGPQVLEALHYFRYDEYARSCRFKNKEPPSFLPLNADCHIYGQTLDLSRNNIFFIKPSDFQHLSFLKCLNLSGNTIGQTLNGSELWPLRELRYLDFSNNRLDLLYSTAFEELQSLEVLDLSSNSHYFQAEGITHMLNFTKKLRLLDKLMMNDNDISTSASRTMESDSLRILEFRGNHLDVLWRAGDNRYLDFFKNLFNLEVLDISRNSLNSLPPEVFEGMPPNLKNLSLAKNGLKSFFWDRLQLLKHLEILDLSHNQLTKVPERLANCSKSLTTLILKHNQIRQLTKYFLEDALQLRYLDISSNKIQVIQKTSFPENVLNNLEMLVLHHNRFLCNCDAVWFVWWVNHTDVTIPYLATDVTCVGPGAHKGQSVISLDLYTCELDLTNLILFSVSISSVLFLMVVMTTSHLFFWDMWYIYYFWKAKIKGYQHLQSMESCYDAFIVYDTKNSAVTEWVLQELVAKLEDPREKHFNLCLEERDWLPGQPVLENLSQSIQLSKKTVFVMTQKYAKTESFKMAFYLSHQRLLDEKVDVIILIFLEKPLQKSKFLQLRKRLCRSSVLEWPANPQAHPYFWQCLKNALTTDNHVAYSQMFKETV
Assay: Short-term in vivo (STIV) assay: oral dosing, R848 s.c., plasma IL-6
Set-up: female BALB/c mice (Jackson Labs, Bar Harbor, Me.) were dosed by oral gavage; tissue Jackson Labs; host or cells: living female BALB/c mice; plasma IL-6 after s.c. R848
Settings: 6 h; 33 mg/kg
Provide the recorded % Suppression vs. Vehicle for the entries that follow.
Give bare numbers, in %.

Record excerpt, results attached:
compound	% Suppression vs. Vehicle [%]
CC1CN(c2ccc(C#N)c3ncccc23)CC(C(=O)NCC2CNCCO2)O1 (centres unmarked)	93
C[C@@H]1CN(c2ccc(C#N)c3ncccc23)C[C@H](CN2CCC(N)CC2)O1	88
CC1CN(c2ccc(C#N)c3ncccc23)CC(C(=O)NC2CCCNC2)O1 (centres unmarked)	81
CC1CN(c2ccc(C#N)c3ncccc23)CC(C(=O)NC2CCNCC2)O1 (centres unmarked)	61

Hey, can you go through the list below and give me % Suppression vs. Vehicle for every item?
1. CC1CN(c2ccc(C#N)c3ncccc23)CC(C(=O)N2CC3(CCNC3)C2)O1 (centres unmarked)
2. CCNC(=O)C1CCN(CC2CN(c3ccc(C#N)c4ncccc34)CC(C)O2)CC1 (centres unmarked)

Key:
[34, 98]
